AUC(0-t) by entry:
# ASSAY INFO: Rat pharmacokinetic study
# Assay type: in vivo, SD rat
# MEASUREMENT PARAMETERS: SD, plasma, IV 2 mg/kg

{"COMPOUND": "CCN(c1nc(-c2ccc(F)cc2)c(C#N)s1)c1c2nc(-c3cnc(N4CCCS4(=O)=O)nc3)ccc2nn1CC", "AUC(0-t)": "4680 ng·h/mL"}
{"COMPOUND": "CCN(c1nc(-c2ccc(F)cc2)c(C#N)s1)c1c2nc(-c3cnc(N4CCC(O)CC4)nc3)ccc2nn1CC", "AUC(0-t)": "7500 ng·h/mL"}
{"COMPOUND": "CCN(c1nc(-c2ccc(F)cc2)c(C#N)s1)c1c2nc(-c3cnc(N4CC[C@@H](O)C4)nc3)ccc2nn1CC", "AUC(0-t)": "13900 ng·h/mL"}
{"COMPOUND": "CCN(c1nc(-c2ccc(F)cc2)c(C#N)s1)c1c2nc(-c3cnc(N4CCOCC4)nc3)ccc2nn1CC", "AUC(0-t)": "6840 ng·h/mL"}
{"COMPOUND": "CCc1nc2c(C)cc(N3CCN(CC(=O)N4CC(O)C4)CC3)cn2c1N(C)c1nc(-c2ccc(F)cc2)c(C#N)s1", "AUC(0-t)": "4460 ng·h/mL"}
